# ASSAY_TARGET: human GnRH receptor (Homo sapiens)
# Construct: The cDNA for the human GnRH receptor is cloned into the plasmid expression vector, pcDNA 3; expressed in transfected cells; host or cells: HEK 293 cells, stably transfected (pcDNA 3); membrane preparation
# Sequence (P30968 1-328): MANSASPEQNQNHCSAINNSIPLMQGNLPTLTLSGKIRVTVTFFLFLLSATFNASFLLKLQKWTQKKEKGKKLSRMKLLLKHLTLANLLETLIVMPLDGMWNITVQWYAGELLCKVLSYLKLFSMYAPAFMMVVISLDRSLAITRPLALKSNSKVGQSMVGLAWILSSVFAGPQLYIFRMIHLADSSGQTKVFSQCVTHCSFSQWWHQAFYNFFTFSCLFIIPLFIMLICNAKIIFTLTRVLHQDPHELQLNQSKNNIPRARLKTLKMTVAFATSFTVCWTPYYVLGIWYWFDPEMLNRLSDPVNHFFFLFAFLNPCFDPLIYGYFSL
# PROTOCOL_NOTES: GnRH receptor competitive radioligand binding assay (125I-GnRH-A, HEK 293 cell membranes)
# TEST_CONTEXT: compound at 10 μM; crude compounds; 125I-GnRH-A; lower value = higher inhibition; read-out: % Remaining 1st Test (percent of specific binding remaining)
MEASURED_QUANTITY: remaining activity at 10 µM (%)

Below are worked cases with known answers.
CC(C)(C)c1ccc(CN(Cc2ccc(CNC(=N)N)cc2)C(=O)c2cccc3ccccc23)cc1 [Compound 1] | 57
Cc1cc2c(cc1CN(CC1CCC(CNC(=N)N)CC1)C(=O)c1ccc(Cl)nc1)C(C)(C)CCC2(C)C (stereo not shown) [Compound 84] | 52
Cc1cc2c(cc1CN(Cc1ccc(CNC(=N)N)cc1)C(=O)c1ccccc1)C(C)(C)CCC2(C)C [Compound 14] | 56

(P) CC(C)(C)c1ccc(CN(Cc2ccc(CNC(=N)N)cc2)C(=O)c2ccccc2)cc1 [Compound 2]
(Q) Cc1cc2c(cc1CN(CC1CCC(CNC(=N)N)CC1)C(=O)COCc1ccccc1)C(C)(C)CCC2(C)C (stereo not shown) [Compound 81]
Exercise: Lab note: check whether P or Q has the lower measured remaining activity at 10 µM. Write down the label attached to your selection.
Solution: Q

(A) Cc1cc2c(cc1CN(CC1CCC(CNC(=N)N)CC1)C(=O)c1ccc(C#N)cc1)C(C)(C)CCC2(C)C (stereo not shown) [Compound 98]
(B) Cc1cc2c(cc1CN(Cc1cccc(CNC(=N)N)c1)C(=O)c1ccco1)C(C)(C)CCC2(C)C [Compound 40]
Exercise: Thinking about recorded remaining activity at 10 µM values, which is higher, A or B ? Write down the label attached to your selection.
Solution: A
(A: 58%, B: 12%)

(I) CC(=O)N(Cc1cc2c(cc1C)C(C)(C)CCC2(C)C)CC1CCCC(CNC(=N)N)C1 (stereo not shown) [Compound 57]
(II) Cc1cc2c(cc1CN(Cc1ccc(CNC(=N)N)cc1)C(=O)c1ccco1)C(C)(C)CCC2(C)C [Compound 13]
Exercise: Lab note: check whether I or II has the lower measured remaining activity at 10 µM. Write down the label attached to your selection.
Solution: II

###

# ASSAY_TARGET: human GnRH receptor (Homo sapiens)
# Construct: The cDNA for the human GnRH receptor is cloned into the plasmid expression vector, pcDNA 3; expressed in transfected cells; host or cells: HEK 293 cells, stably transfected (pcDNA 3); membrane preparation
# Sequence (P30968 1-328): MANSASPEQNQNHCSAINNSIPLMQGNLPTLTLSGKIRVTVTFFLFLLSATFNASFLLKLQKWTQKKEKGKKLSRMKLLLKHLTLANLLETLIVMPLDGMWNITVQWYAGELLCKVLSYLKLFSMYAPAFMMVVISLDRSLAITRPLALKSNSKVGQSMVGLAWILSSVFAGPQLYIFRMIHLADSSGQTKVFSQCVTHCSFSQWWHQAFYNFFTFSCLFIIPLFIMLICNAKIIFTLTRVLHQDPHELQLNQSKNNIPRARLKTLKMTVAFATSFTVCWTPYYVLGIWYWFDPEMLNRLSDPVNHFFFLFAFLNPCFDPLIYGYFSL
# PROTOCOL_NOTES: GnRH receptor competitive radioligand binding assay (125I-GnRH-A, HEK 293 cell membranes)
# TEST_CONTEXT: compound at 10 μM; crude compounds; 125I-GnRH-A; lower value = higher inhibition; read-out: % Remaining 2nd Test (percent of specific binding remaining)
MEASURED_QUANTITY: remaining activity at 10 µM (%)

N=C(N)NCC1CCC(CN(CC23CC=CCC2C2CC=CCC2O3)C(=O)c2cc3ccccc3s2)CC1 (stereo not shown) [Compound 78] | 58
CC(=O)N(Cc1cccc(Oc2ccc(Cl)cc2)c1)CC1CCC(CNC(=N)N)CC1 (stereo not shown) [Compound 75] | 58
CC(=O)N(Cc1cc2c(cc1C)C(C)(C)CCC2(C)C)CC1CCC(CNC(=N)N)CC1 (stereo not shown) [Compound 83] | 57
N=C(N)NCC1CCCC(CN(Cc2ccc(OCc3ccccc3)c(OCc3ccccc3)c2)C(=O)c2ccc(Cl)nc2)C1 (stereo not shown) [Compound 64] | 51
